Hello, the source for this data is PubChem BioAssay AID504327, in case you need it.

# assayTarget: Histone acetyltransferase KAT2A (Homo sapiens)
# testProtocol: qHTS Assay for Inhibitors of GCN5L2
# measurementContext: GCN5L2 HAT assay, ThioGlo1 CoA-SH fluorescence; series mostly up to 58.9 µM
Hit rate of the full screen: of about 390,000 compounds, about 820 (0.21%) were called active. Another 3% or so got no clear call; they are omitted. The entries come from a sample that favours actives as a whole.
quantityKind: outcome

[[record]]
compound = "CC1(C)C=CC(=O)[C@]2(C)C1CC(=O)[C@]1(C)C2CC[C@@]2(C)C(c3ccoc3)OC(=O)C3OC321 (stereo not given in full)"
measured = "inactive"

[[record]]
compound = "O=C(Nc1ccc(O)cc1)c1ccccc1O"
measured = "inactive"

[[record]]
compound = "COC(=O)CC1C(C)(C)C(OC(C)=O)C2CC3=C4CC(=O)OC(c5ccoc5)[C@]4(C)CCC3[C@@]1(C)C2=O (stereo not given in full)"
measured = "inactive"

[[record]]
compound = "C[C@@H]1C(c2ccc(F)cc2)=NN(c2ccc(Br)cc2)[C@H]1C(=O)N1CCOC1=O"
measured = "inactive"

[[record]]
compound = "COc1ccccc1CNc1ncnc2ccc(-c3c(C)noc3C)cc12"
measured = "inactive"


* * *

# assayTarget: Histone acetyltransferase KAT2A (Homo sapiens)
# testProtocol: qHTS Assay for Inhibitors of GCN5L2; further: potency means the concentration at half of the fitted maximal effect
# measurementContext: GCN5L2 HAT assay, ThioGlo1 CoA-SH fluorescence; series mostly up to 58.9 µM
# Excerpt: Histone acetyltransferase (HAT) enzymes transfer a […] group from acetyl-coenzyme A to the epsilon-amino group of conserved lysine residues of N-terminal histone tails. […] A quantitative high throughput screen was developed to identify small molecule inhibitors. […] [2] Yasgar, et al. Compound Management for Quantitative High-Throughput Screening. […]
Hit rate of the full screen: of about 390,000 compounds, about 820 (0.21%) were called active. Roughly 3% stayed inconclusive and do not appear here. The list comes from a sample in which actives are over-represented; it also holds close analogues and randomly drawn compounds.
quantityKind: Potency

[[record]]
compound = "CCOC(=O)C(Cc1ccc(N)cc1)N1C(=O)c2ccccc2C1=O (stereo unspecified)"
measured = "inactive"

[[record]]
compound = "Cc1ccc(C)n1C(Cc1ccccc1)C(=O)O (stereo unspecified)"
measured = "22.4 µM (active)"

[[record]]
compound = "CCOC(=O)c1sc(=S)n2c1[nH]c(=O)c1ccc(C(=O)OC)cc12"
measured = "35.5 µM (active)"

[[record]]
compound = "COc1ccc(CNC(=O)C(Cc2ccccc2)n2cccc2)cc1 (stereo unspecified)"
measured = "inactive"

[[record]]
compound = "Cc1csc(-c2nc3ccccc3n2C)n1"
measured = "inactive"

[[record]]
compound = "CS(=O)(=O)N1CCC2(CC1)CN(Cc1ccccc1)C2"
measured = "inactive"


* * *

# assayTarget: Histone acetyltransferase KAT2A (Homo sapiens)
# testProtocol: qHTS Assay for Inhibitors of GCN5L2
# measurementContext: GCN5L2 HAT assay, ThioGlo1 CoA-SH fluorescence; series mostly up to 58.9 µM
The whole screen tested about 390,000 compounds, of which about 820 (0.21%) were called active. Roughly 3% stayed inconclusive and do not appear here. Calls come from the whole dose curve; as a rule, active = well fitted inhibition curve with a large enough effect; inconclusive = small, poorly fitted or top-dose-only effect, or another doubt; inactive = no such curve, though single readings can be large or run the other way. What follows is part of a selection rich in actives, with near analogues and random picks from the rest.
Possible outcomes: 1 = active, 0 = inactive

[[record]]
compound = "CC(=O)N1CCN(C(=O)c2cc(-c3ccc(Cl)s3)nc3ccccc23)CC1"
grouplabel = 0

[[record]]
compound = "Cn1cc(-c2nc3cnc(N4CCNCC4)nc3n(CCc3ccccc3)c2=O)c2ccccc21"
grouplabel = 0

[[record]]
compound = "N#Cc1cccc(-c2nc3cnc(N4CCNCC4)nc3n(C3CC3)c2=O)c1"
grouplabel = 1

[[record]]
compound = "Cc1ccc(-c2nn(-c3ccccc3)cc2/C=C2\\SC(=S)N(CCCCCC(=O)O)C2=O)o1"
grouplabel = 1

[[record]]
compound = "CC(N)(C(=O)O)c1ccc(-c2nn[nH]n2)cc1 (stereo not given)"
grouplabel = 0

[[record]]
compound = "CC(=O)N1CCN(C(=O)c2cc(-c3ccc(C)o3)nc3ccccc23)CC1"
grouplabel = 1

[[record]]
compound = "Cc1cc2oc(=O)cc(-c3ccccc3)c2c(C)c1/C=C/c1ccc(F)cc1"
grouplabel = 0

[[record]]
compound = "Cc1ccc(S(=O)(=O)N2CCN(C(=O)c3ccccc3-c3nc4ccccc4s3)CC2)c(C)c1"
grouplabel = 0

[[record]]
compound = "COc1ccc(C(=O)N2CCC3(CC2)CCN(c2ccccn2)CC3)cc1"
grouplabel = 0

[[record]]
compound = "O=C(O)C(O)[C@@](O)(Cc1ccc(O)cc1)C(=O)O (stereo not given in full)"
grouplabel = 0


* * *

# assayTarget: Histone acetyltransferase KAT2A (Homo sapiens) (UniProt Q92830)
# Sequence (Q92830 whole entry, looked up): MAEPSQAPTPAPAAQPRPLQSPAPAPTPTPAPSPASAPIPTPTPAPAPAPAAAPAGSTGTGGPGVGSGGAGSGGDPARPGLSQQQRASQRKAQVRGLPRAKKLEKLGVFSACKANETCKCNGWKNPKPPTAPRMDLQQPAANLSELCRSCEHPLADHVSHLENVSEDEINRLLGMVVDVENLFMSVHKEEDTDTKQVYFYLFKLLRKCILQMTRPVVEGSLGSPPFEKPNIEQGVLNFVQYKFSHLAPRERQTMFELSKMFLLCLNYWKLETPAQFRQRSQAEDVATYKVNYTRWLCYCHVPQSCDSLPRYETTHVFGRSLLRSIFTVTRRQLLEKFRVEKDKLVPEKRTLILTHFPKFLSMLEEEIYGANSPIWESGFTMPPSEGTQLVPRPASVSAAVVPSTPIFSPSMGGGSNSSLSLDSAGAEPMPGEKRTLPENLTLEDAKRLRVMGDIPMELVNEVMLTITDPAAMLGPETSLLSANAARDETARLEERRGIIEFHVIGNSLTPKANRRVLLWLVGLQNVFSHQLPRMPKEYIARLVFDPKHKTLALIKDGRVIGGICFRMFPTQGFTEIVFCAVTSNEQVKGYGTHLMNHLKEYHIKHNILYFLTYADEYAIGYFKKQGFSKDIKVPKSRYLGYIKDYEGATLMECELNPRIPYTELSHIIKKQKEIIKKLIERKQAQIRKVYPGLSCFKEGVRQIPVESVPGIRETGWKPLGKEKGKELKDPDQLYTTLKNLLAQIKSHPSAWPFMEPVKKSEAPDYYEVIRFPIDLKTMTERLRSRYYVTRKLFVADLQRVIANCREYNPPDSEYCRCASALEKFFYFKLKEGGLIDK
# testProtocol: qHTS Assay for Inhibitors of GCN5L2
# measurementContext: GCN5L2 HAT assay, ThioGlo1 CoA-SH fluorescence; series mostly up to 58.9 µM
In all, about 390,000 compounds went through this assay and about 820 (0.21%) were called active. Roughly 3% stayed inconclusive and do not appear here. The call rests on the fitted dose curve; in most records, active means well fitted inhibition curve with a large enough effect; inconclusive means small, poorly fitted or top-dose-only effect, or another doubt; inactive means no such curve, though single readings can be large or run the other way. The sample holds actives, similar compounds and a random draw of the others, so the mix is not that of the screen.
Possible outcomes: active, inactive

[[record]]
compound = "O=C(c1csnn1)N1CCC[C@@]2(CCN(c3cccc(-c4ccccc4)c3)C2)C1"
assaytarget = "Histone acetyltransferase KAT2A (Homo sapiens) (UniProt Q92830)"
grouplabel = "inactive"

[[record]]
compound = "O=c1c(CCc2ccccc2)nc2cnc(N3CCNCC3)nc2n1Cc1cccs1"
assaytarget = "Histone acetyltransferase KAT2A (Homo sapiens) (UniProt Q92830)"
grouplabel = "inactive"

[[record]]
compound = "CCNc1ncc2nc(CCc3ccccc3)c(=O)n(-c3ccc(OC)cc3)c2n1"
assaytarget = "Histone acetyltransferase KAT2A (Homo sapiens) (UniProt Q92830)"
grouplabel = "inactive"

[[record]]
compound = "CCNc1ncc2ncc(=O)n(Cc3cccc(OC)c3)c2n1"
assaytarget = "Histone acetyltransferase KAT2A (Homo sapiens) (UniProt Q92830)"
grouplabel = "inactive"

[[record]]
compound = "Oc1ccc(-c2c(-c3ccccc3)nn3c(C(F)(F)F)cc(C(F)(F)F)nc23)cc1"
assaytarget = "Histone acetyltransferase KAT2A (Homo sapiens) (UniProt Q92830)"
grouplabel = "inactive"

[[record]]
compound = "CC(C)(O)CCC(O)[C@@](C)(O)C1CC[C@]2(O)C3=CC(=O)C4CC(O)C(O)C[C@]4(C)C3CC[C@]12C (some centres undefined)"
assaytarget = "Histone acetyltransferase KAT2A (Homo sapiens) (UniProt Q92830)"
grouplabel = "inactive"

[[record]]
compound = "O=c1cc(-c2ccc(O)cc2)oc2c([C@@H]3O[C@H](CO)[C@@H](O)[C@H](O)[C@H]3O)c(O)cc(O)c12"
assaytarget = "Histone acetyltransferase KAT2A (Homo sapiens) (UniProt Q92830)"
grouplabel = "inactive"

[[record]]
compound = "CCCCOC(=O)Cn1c(=O)n(CC(=O)OCCCC)c2cc(C)ccc21"
assaytarget = "Histone acetyltransferase KAT2A (Homo sapiens) (UniProt Q92830)"
grouplabel = "active"

[[record]]
compound = "Cc1ccc(C)c(NC(=O)COC(=O)Cn2c(C)csc2=O)c1"
assaytarget = "Histone acetyltransferase KAT2A (Homo sapiens) (UniProt Q92830)"
grouplabel = "inactive"


* * *

# assayTarget: Histone acetyltransferase KAT2A (Homo sapiens)
# testProtocol: qHTS Assay for Inhibitors of GCN5L2
# measurementContext: GCN5L2 HAT assay, ThioGlo1 CoA-SH fluorescence; series mostly up to 58.9 µM
About 820 (0.21%) of roughly 390,000 compounds were called active. About 3% were inconclusive and are not listed. The call rests on the fitted dose curve; in most records, active means well fitted inhibition curve with a large enough effect; inconclusive means small, poorly fitted or top-dose-only effect, or another doubt; inactive means no such curve, though single readings can be large or run the other way. Many of the other results were omitted from the sample, so actives are more common in it than they were.
Possible outcomes: T = active, F = inactive

[[record]]
compound = "Cc1ccc(Cl)cc1NC(=O)C(C)n1nnc2sc(-c3ccccc3)cc2c1=O (centres undefined)"
grouplabel = "T"

[[record]]
compound = "NCCC(=O)c1ccccc1N"
grouplabel = "F"

[[record]]
compound = "COCCn1c(=O)c(CCc2ccccc2)nc2cncnc21"
grouplabel = "F"

[[record]]
compound = "C[C@@H](O)[C@@H]1NC(=O)[C@H](CCCCN)NC(=O)[C@H](Cc2c[nH]c3ccccc23)NC(=O)[C@H](Cc2ccccc2)NC(=O)[C@H](Cc2ccccc2)NC(=O)[C@H](CC(N)=O)NC(=O)[C@H](CCCCN)NC(=O)[C@@H](NC(=O)[C@@H]2CCCN2)CSSC[C@@H](C(=O)N[C@@H](CCCCN)C(=O)O)NC(=O)[C@H](CO)NC(=O)[C@H](CO)NC(=O)[C@H](Cc2ccccc2)NC1=O"
grouplabel = "F"

[[record]]
compound = "O=C1C(c2ccccn2)=[N+]([O-])c2ccccc21"
grouplabel = "F"

[[record]]
compound = "NC(=O)c1sc(-c2ccsc2)cc1N"
grouplabel = "F"

[[record]]
compound = "O=c1cnc2cnc(Nc3ccccc3)nc2n1Cc1ccc(F)cc1"
grouplabel = "F"

[[record]]
compound = "COc1cc2c(cc1OC)CC(=O)N(CCCN(C)C[C@H]1Cc3cc(OC)c(OC)cc31)CC2"
grouplabel = "F"

[[record]]
compound = "COc1cccc(Cn2c(=O)cnc3cncnc32)c1"
grouplabel = "F"

